Molecular target: human glucagon receptor (human) (UniProt P47871)
Sequence (P47871 26-477): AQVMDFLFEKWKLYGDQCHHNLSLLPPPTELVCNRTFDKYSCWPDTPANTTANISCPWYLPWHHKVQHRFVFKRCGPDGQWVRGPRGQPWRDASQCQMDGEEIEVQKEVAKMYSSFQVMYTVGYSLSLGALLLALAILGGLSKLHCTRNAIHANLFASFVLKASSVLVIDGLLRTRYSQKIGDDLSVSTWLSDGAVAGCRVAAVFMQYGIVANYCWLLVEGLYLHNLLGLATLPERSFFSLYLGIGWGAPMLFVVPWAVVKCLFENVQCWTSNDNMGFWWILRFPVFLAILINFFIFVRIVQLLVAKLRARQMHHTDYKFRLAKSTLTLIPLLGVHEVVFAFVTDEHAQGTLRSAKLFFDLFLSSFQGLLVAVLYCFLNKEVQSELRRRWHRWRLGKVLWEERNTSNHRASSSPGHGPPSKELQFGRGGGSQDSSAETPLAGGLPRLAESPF
Assay: cell-based or functional assay
Readings of cAMP Rel EC50, nM (in the presence of 1% HSA) for the listed binders

Consider the worked cases shown below.
YXQGTFTSDFSKXLDKKAQXAFIEYLLEXGPSSGAPPPGEG (synthetic construct; SITE 2: note = 2-Aminoisobutyric Acid; SITE 13: note = alpha-methyl-leucine; SITE 17: note = Lysine is chemically modified through conjugation of the epsilon-amino group of the Lysine side chain with (2-[2-(2-Amino-ethoxy)-ethoxy]-acetyl)2-(gamma-Glu)-CO-(CH2 )18-CO2H; SITE 20:) [Example 55]: 960 nM
YXQGTFTSDFSXXLDKKAQXAFIEYLLEAGPSSGAPPPSGE (synthetic construct; SITE 2: note = 2-Aminoisobutyric Acid; SITE 12: note = L-ornithine; SITE 13: note = alpha-methyl-leucine; SITE 17: note = Lysine is chemically modified through conjugation of the epsilon-amino group of the Lysine side chain with (2-[2-(2-Amino-ethoxy)-ethoxy]-acetyl)-(gamma-Glu)) [Example 129]: 510 nM
YXQGTFTSDFSXXLDKKAQXAFIEYLLEXGPSSGAPPPSGE (synthetic construct; SITE 2: note = 2-Aminoisobutyric Acid; SITE 12: note = L-ornithine; SITE 13: note = alpha-methyl-leucine; SITE 17: note = Lysine is chemically modified through conjugation of the epsilon-amino group of the Lysine side chain with (2-[2-(2-Amino-ethoxy)-ethoxy]-acetyl)2-(gamma-Glu)) [Example 111]: 1260 nM
YXQGTFTSDFSKXLDKKAQXAFIEYLLEGGPSSGAPPPSGS (synthetic construct; SITE 2: note = 2-Aminoisobutyric Acid; SITE 13: note = alpha-methyl-leucine; SITE 17: note = Lysine is chemically modified through conjugation of the epsilon-amino group of the Lysine side chain with (2-[2-(2-Amino-ethoxy)-ethoxy]-acetyl)2-(gamma-Glu)-CO-(CH2 )16-CO2H; SITE 20:) [Example 142]: 1230 nM
YXQGTFTSDFSXXLDKKAQXAFIEYLLEGGPSSGEPPPSEG (synthetic construct; SITE 2: note = 2-Aminoisobutyric Acid; SITE 12: note = L-ornithine; SITE 13: note = alpha-methyl-leucine; SITE 17: note = Lysine is chemically modified through conjugation of the epsilon-amino group of the Lysine side chain with (2-[2-(2-Amino-ethoxy)-ethoxy]-acetyl)-(gamma-Glu)) [Example 59]: 2160 nM
YXQGTFTSDXSRXLDKKAQXAFIEYLLEXGESSGAPPPSGS (synthetic construct; SITE 2: note = 2-Aminoisobutyric Acid; SITE 10: note = 3-(4-Pyridyl)-L-alanine; SITE 13: note = alpha-methyl-leucine; SITE 17: note = Lysine is chemically modified through conjugation of the epsilon-amino group of the Lysine side chain with (2-[2-(2-Amino-ethoxy)-ethoxy]-acetyl)) [Example 132]: 632 nM

Alright, here's another binder for you.
Task: Given the entry YXQGTFTSDFSKXLDKKAQXAFIEYLLEGGPSSGAPPPXGE (synthetic construct; SITE 2: note = 2-Aminoisobutyric Acid; SITE 13: note = alpha-methyl-leucine; SITE 17: note = Lysine is chemically modified through conjugation of the epsilon-amino group of the Lysine side chain with (2-[2-(2-Amino-ethoxy)-ethoxy]-acetyl)-(gamma-Glu)-CO-(CH2) 18-CO2H; SITE 20: n) [Example 53] , report its measured cAMP Rel EC50, nM (in the presence of 1% HSA).
Output: 1780 nM
